B1: LINE1-full (parent)
chain: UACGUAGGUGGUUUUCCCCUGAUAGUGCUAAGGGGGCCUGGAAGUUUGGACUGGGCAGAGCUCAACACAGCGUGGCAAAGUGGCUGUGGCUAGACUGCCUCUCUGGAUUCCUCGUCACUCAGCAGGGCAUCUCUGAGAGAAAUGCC

Variants of: B1
Experiment: self-cleavage, relative activity (ratio to wild type); higher = more cleavage; in vitro, sequencing; the parent is a self-cleaving ribozyme
Note to self: values exactly at 0.9 are Fulfilled. So self-cleavage at or above 0.9 is Fulfilled, below is Not fulfilled.

Does the reported self-cleavage for UACGUAGGUGGUUUUCCCCUGAUAGUGCUAAGGGGGCCUGGAAGUUUGGACUGGGCAGAGCUCAACACAGCGUGGCAAAGUGGCUGUGGCUAGACUGCCUCUCUGGAUUCAUCGUCACUCAGCAGGGCAACUCUGAGAGAAAUGCC [C111A U130A] fall at or above the 0.9 mark?
Fulfilled

Further, for UACGUAGGUGGUUUUCCCCUGAUAGUGCUAAGGGGGCCUGGAAGUUUGGACUGGGCAGAGCUCAACACGGCGUGGCAUAGUGGCUGUGGCUAGACUGCCUCUCUGGAUUCCUCGUCACUCAGCAGGGCAUCUCUGAGAGAAAUGCC [A69G A78U] ?
Not fulfilled

Further, for UACAUAGGUGGUUUUCCCCUGAUAGUGCUAAGGGGGCCUGGAAGUUUGGACUGGGCAGGGCUCAACACAGCGUGGCAAAGUGGCUGUGGCUAGACUGCCUCUCUGGAUUCCUCGUCACUCAGCAGGGCAUCUCUGAGAGAAAUGCC [G4A A59G] ?
Not fulfilled

Further, for UACGUAGGUGGUUUUCCCCUGAUAGUGCUAAGGGGGCCUUGAAGUUUGGACUGGGCAGAGCUCAACACAGCGUGGCAAGGUGGCUGUGGCUAGACUGCCUCUCUGGAUUCCUCGUCACUCAGCAGGGCAUCUCUGAGAGAAAUGCC [G40U A79G] ?
Fulfilled

Further, for UACGUAGGUGGUUUUCCCCUGAUAGUGCUAAGGGGGCCUGGAAGUUUGGACUGGGCAGAGCUCAACACAGCGUGGCAAAGUGGCUGUGGCUAGACUGCCUCUCUGGAUUCCCCGUCACUUAGCAGGGCAUCUCUGAGAGAAAUGCC [U112C C120U] ?
Fulfilled

Further, for UACGUAGGUGGUUUUCCCCUGAUAGUGCUAAGGGGGCCUGGAAGUUUGGACUGGGCAGAGCUCAACACAGCGUGGCAAGGUGGCUGUGGCUAGACUGCCUCUCUGGAUUCCUCGUCACUCAGCAGGGCAUCUAUGAGAGAAAUGCC [A79G C133A] ?
Fulfilled

Further, for UACGUAGGUGGUUUUCCCCUGAUAGUGCUAAGGGGGCCUGGAAGUUUGGGCUGGGCAGAGCUCAGCACAGCGUGGCAAAGUGGCUGUGGCUAGACUGCCUCUCUGGAUUCCUCGUCACUCAGCAGGGCAUCUCUGAGAGAAAUGCC [A50G A65G] ?
Not fulfilled

Further, for UACGUAGGAGGUUUUCCACUGAUAGUGCUAAGGGGGCCUGGAAGUUUGGACUGGGCAGAGCUCAACACAGCGUGGCAAAGUGGCUGUGGCUAGACUGCCUCUCUGGAUUCCUCGUCACUCAGCAGGGCAUCUCUGAGAGAAAUGCC [U9A C18A] ?
Fulfilled

Further, for UACGUAGGAGGUUUUCCCCUGAUAGUGCUAAGGGGGCCUGGAAGUUUGGACUGGGCAGAGCUCAACACAGAGUGGCAAAGUGGCUGUGGCUAGACUGCCUCUCUGGAUUCCUCGUCACUCAGCAGGGCAUCUCUGAGAGAAAUGCC [U9A C71A] ?
Not fulfilled

Further, for UACGUAGAUGGUUUUCCCCUGAUAGUGCUAAGGGGGCCUGGAAGUUUGGACUGGGCAGAGCUCAGCACAGCGUGGCAAAGUGGCUGUGGCUAGACUGCCUCUCUGGAUUCCUCGUCACUCAGCAGGGCAUCUCUGAGAGAAAUGCC [G8A A65G] ?
Not fulfilled

Further, for UACGUAGGUGGUUUUCCCCUGAUAGUGCUAAGGGGGCCUGGAAGUUUGGACUGGGCAUAGCUCAACACAGUGUGGCAAAGUGGCUGUGGCUAGACUGCCUCUCUGGAUUCCUCGUCACUCAGCAGGGCAUCUCUGAGAGAAAUGCC [G58U C71U] ?
Not fulfilled

Further, for UACGUAGGUGGUUUUCCCCUGAUAGUGCUAAGGGGGCCUGGAAGUUUGGACUGGGCAGAGCUCAACACAGCGUGGCAAAGUGGUUGUGGCUAGACUGCCUCUCUGGAUUCCUCGUCACUCAGCAGGGCAUCCCUGAGAGAAAUGCC [C84U U132C] ?
Not fulfilled

Further, for UACGUAGGUGGUUUUCCCCUGAUAGUGCUAAGGGGGCCUGGAAGUUCGGACUGGGCAGAGCUCAACACAGCGUGGCAAAGUGGCUGUGGCUAGACGGCCUCUCUGGAUUCCUCGUCACUCAGCAGGGCAUCUCUGAGAGAAAUGCC [U47C U96G] ?
Not fulfilled

Further, for UACGUAGGUGGUUUUCCCCUGAUAGUGCUAAGGGGGCCUGGAAGUUUGGACUGGGCAGAGCUCAACACAGCGUGGCAAAGUGGCUGUGGCUAGACUGCCUCUCUGGAUUCCUCUUCACUCAGCAGGGCAUCUCUGAGAGAAAUGCC [G114U] ?
Fulfilled

Further, for UACGUAGGUGGUUUUCCCCUGAUAGUGCUAAGGGGGCCUGGAAGUUUGGACUGGACAGAGCUCAACACAGCGUGGCAAAGUGGCUGUGGCUAGACUGCCUCUCUGGAUUCCCCGUCACUCAGCAGGGCAUCUCUGAGAGAAAUGCC [G55A U112C] ?
Not fulfilled

Further, for UACGUAGGUGGUUUUCCCCUGAUAGUGCUUAGGGGGCCUGGAAGUUUGGACUGGGCAGAGCUCAACACAGCGUGGCAAAGUGGCUGUGGCUAGGCUGCCUCUCUGGAUUCCUCGUCACUCAGCAGGGCAUCUCUGAGAGAAAUGCC [A30U A94G] ?
Not fulfilled

Further, for UACGUAGGUGGUUUUCCCCUGAUAGUGCUAAGGGGGCCUGGAAGUUUGGACUGGGCAGAGCUCAACACAGCGUGGCAAAGUGGCUGUGGCUAGACUGCCUCUCUGGUUUCCUCGUCACUCAGCAGGGCAUCUCUGAGAGAAAUGCU [A107U C146U] ?
Fulfilled

Further, for UACGUAGGCGGUUUUCCCCUGAUAGUGCUAAGGGGGCCUGGAAGUUUGGACUGGGCAGAGCUCAACACAGCGUGGCAAAGUGGCUGUGGCUAGACUGCCUCACUGGAUUCCUCGUCACUCAGCAGGGCAUCUCUGAGAGAAAUGCC [U9C U102A] ?
Fulfilled

Further, for UACGUAGGUGGUUUUCCCCUGAUAGUGCUAAGGGGGCCUGGAAGUUUGGACUGGGCAGAGCUCAACACAGCGUGGCAAAGUGGCUGUGGCUAGACUGCCUCUCUGGAGUCCUCGUCACUCAGCAGGGCAACUCUGAGAGAAAUGCC [U108G U130A] ?
Not fulfilled

Further, for UACGUAGGUGGUUUUCCCCUGAUAGUGCUAAGGGGGCCUGGAAGUUUGGACUGGGCAGAGCUCAACACAGCGUGGCAAAGUGGCUGUGGCUAAACUGCCUCUCUGGAUUCCUCGUCACUCAGCAGGGCAUCUCUGAGAGAUAUGCC [G93A A141U] ?
Not fulfilled

Further, for UACGUAGGUGGUUUUCCCCUGAUAGUGCUAAGGGGGCCUGGAAGUUUGGACUGGGCAGAGCUCAACACAGCGUGGCAAAGUGGCUGUGGCUAGACUGCCUCUCUGGAAUCCUCGUCACUCAGCAGGGCAUCGCUGAGAGAAAUGCC [U108A U132G] ?
Fulfilled

Further, for UACGUAGGUUGUUUUCCCCUGAUAGUGCUAAGGGGGCCUGGAAGUUUGGACUGGGCAGUGCUCAACACAGCGUGGCAAAGUGGCUGUGGCUAGACUGCCUCUCUGGAUUCCUCGUCACUCAGCAGGGCAUCUCUGAGAGAAAUGCC [G10U A59U] ?
Not fulfilled

Further, for UACGUAGGUGGUUUUCCCCUGAUAGUGCUAAGGGGGCCUGGAAGUUUGGACUGGGCAGAGCUCAACACAGCGUGGCAAAGUGGCUGUGGCUAGACUGCCUCUCUGGAUUCCUCGUCACGCAGCAGGGCAUCUCUGAGAGAAAAGCC [U119G U143A] ?
Fulfilled
